Hey, just so you know, these numbers are from ChEMBL document CHEMBL4602687.

Test System: Heat shock protein 75 kDa, mitochondrial (Homo sapiens)
Sequence (Q12931 whole entry): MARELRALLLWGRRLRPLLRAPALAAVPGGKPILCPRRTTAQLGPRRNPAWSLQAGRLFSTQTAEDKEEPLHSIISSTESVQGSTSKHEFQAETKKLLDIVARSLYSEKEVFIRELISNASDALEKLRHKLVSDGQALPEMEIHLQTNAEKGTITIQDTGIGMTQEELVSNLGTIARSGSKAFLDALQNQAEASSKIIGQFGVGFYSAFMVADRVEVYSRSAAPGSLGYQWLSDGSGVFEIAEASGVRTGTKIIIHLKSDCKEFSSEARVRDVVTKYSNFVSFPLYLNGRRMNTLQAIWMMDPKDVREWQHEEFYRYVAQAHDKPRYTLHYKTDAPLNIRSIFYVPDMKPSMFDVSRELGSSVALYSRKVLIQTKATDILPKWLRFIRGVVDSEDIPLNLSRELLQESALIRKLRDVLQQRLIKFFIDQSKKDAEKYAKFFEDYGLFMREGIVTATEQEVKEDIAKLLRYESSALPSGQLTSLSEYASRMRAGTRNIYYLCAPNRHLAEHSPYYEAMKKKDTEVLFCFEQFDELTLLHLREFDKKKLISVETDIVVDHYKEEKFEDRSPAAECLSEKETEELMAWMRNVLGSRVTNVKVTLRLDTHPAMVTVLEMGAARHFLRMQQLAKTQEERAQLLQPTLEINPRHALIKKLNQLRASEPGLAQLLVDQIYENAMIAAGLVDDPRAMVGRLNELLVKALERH
Protocol: Inhibition of PU-H71-FITC binding to recombinant wild-type human TRAP1 expressed in Escherichia coli BL21 (DE3) measured after 2 hrs by fluorescence polarization assay
Measure Name: pIC50
Value format note: pIC50 is -log10 of concentration (mol/L); just state the number.

Sample records with pIC50:
| Smiles Str | Test System | Measure Name | Observed Value |
| --- | --- | --- | --- |
| Nc1ncnc2c1nc(Sc1cc3c(cc1I)OCO3)n2CCCCCCCC[P+](c1ccccc1)(c1ccccc1)c1ccccc1 | Heat shock protein 75 kDa, mitochondrial (Homo sapiens) | pIC50 | 6.06 |
| Nc1ncnc2c1nc(Sc1cc3c(cc1I)OCO3)n2CCCCCC[P+](c1ccccc1)(c1ccccc1)c1ccccc1 | Heat shock protein 75 kDa, mitochondrial (Homo sapiens) | pIC50 | 6.10 |

We next turn to a different molecule, shown below.
*Q* Returns the measured pIC50 for the input molecule. Input: Nc1ncnc2c1nc(Sc1cc3c(cc1I)OCO3)n2CCCCCCCCCC[P+](c1ccccc1)(c1ccccc1)c1ccccc1.[Br-]
*A* 5.73
